target: T1, SARS-CoV-2 Delta Variant RBD (SARS-CoV-2 Delta variant); assay: ELISA, RBD coated
T1 construct: domain: RBD; coated on ELISA plates
readout.kind: pEC50
Quick note: pEC50 means taking -log10 of the concentration in moles per liter.

Quick one: pEC50 of PP1148 MBP-5HVZ-PAPA-R5a-C5-H6 (VHH, Form: Dimer) VHH: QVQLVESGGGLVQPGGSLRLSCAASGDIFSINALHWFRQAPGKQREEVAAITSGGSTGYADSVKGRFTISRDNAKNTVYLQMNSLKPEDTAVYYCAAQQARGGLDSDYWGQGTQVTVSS ?
9.66

Return reported pEC50; argument: PP1110 MBP-5HVZ-PAPA-RN-26-H6 (VHH, Form: Dimer) VHH: QVQLVESGGGLVQPGGSLRLSCAASGSISSINSMHWYRQAPGKEREWVAAVSSYGSDYYADSVKGRFTISRDNAKNTVYLQMNSLKPEDTAVYYCAARTVTGFTYGDYWGQGTQVTVSS
6.39

Consider the binder PP1095 MBP-5HVZ-PAPA-RN-2-H6 (VHH) VHH: QVQLVESGGGLVQPGGSLRLSCAASGSYFSKNAVHWYRQAPGKGREWVAALTNSGSGNYKDSVKGRFTISRDNAKNTVYLQMNSLKPEDTAVYYCTANISESTGQGYDYWGQGTQVTVSS and give its measured pEC50.
7.77

Sample PP908 MBP-5HVZ-S2a-C4-H6 (VHH, Form: Dimer) VHH: QVQLVESGGGLVQPGGSLRLSCAASGFSESINATAWFRQAPGKQREGVAGLDGGGSDYYSDSVKGRFTISRDNAKNTVYLQMNSLKPEDTAVYYCAAQLTSSFRGYDFTPSNYDYWGQGTQVTVSS — what was its pEC50?
8.67

Requested field: pEC50. Item: PP1145 MBP-5HVZ-PAPA-R2d-A6-H6 (VHH, Form: Dimer) VHH: QVQLVESGGGLVQPGGSLRLSCAASGSGASIGAMHWFRQAPGKGREWVASITSAGNTYYGDSVKGRFTISRDNAKNTVYLQMNSLKPEDTAVYYCNALAGANYESQWEEYNYWGQGTQVTVSS
7.05

So what's the measured pEC50 for this one? PP1101 MBP-5HVZ-PAPA-RN-16-H6 (VHH, Form: Dimer) VHH: QVQLVESGGGLVQPGGSLRLSCAASGADFSSNAMHWFRQAPGKAREFVASIDSDKSGYYADSVKGRFTISRDNAKNTVYLQMNSLKPEDTAVYYCNAYSGTDNYGYDYWGQGTQVTVSS
7.37

// returns reported pEC50 for input PP931 MBP-5HVZ-R5a-F5-H6 (VHH, Form: Dimer) VHH: QVQLVESGGGLVQPGGSLRLSCAASGYHASILAMHWVRQAPGKEREWVASMTWSDMTQYSDSVKGRFTISRDNAKNTVYLQMNSLKPEDTAVYYCAATYVTRDRPWTHWGQGTQVTVSS
6.90

Which pEC50 value belongs to PP1094 MBP-5HVZ-PAPA-RN-1-H6 (VHH) VHH: QVQLVESGGGLVQPGGSLRLSCAASGYIFEGGPTAWFRQAPGKGREFVAAITTSGETSYAYSVKGRFTISRDNAKNTVYLQMNSLKPEDTAVYYCNATDRDETGYDYWGQGTQVTVSS ?
7.30

Entry under review: PP1147 MBP-5HVZ-PAPA-R5a-B7-H6 (VHH, Form: Dimer) VHH: QVQLVESGGGLVQPGGSLRLSCAASGAFFSYGAIHWFRQAPGKQREEVAAITSGGSTGYADSVKGRFTISRDNAKNTVYLQMNSLKPEDTAVYYCNAGVVWLPSNAAYNLWGQGTQVTVSS . Reported pEC50?
9.31

Param item = PP1104 MBP-5HVZ-PAPA-RN-19-H6 (VHH, Form: Dimer) VHH: QVQLVESGGGLVQPGGSLRLSCAASGIDDSIGAMHWFRQAPGKGREFVAALSGTGTTSYADSVKGRFTISRDNAKNTVYLQMNSLKPEDTAVYYCAAAFPAGGDYWGQGTQVTVSS ; retrieve measured pEC50.
6.53
